# test: Plasma drug concentration cutoffs for treatment adherence
# reported.conditions: human, in vivo; under 100% adherent conditions; read-out: plasma concentration cutoff approximating the lowest observed concentration 24 hours after the last dose
Counter-ions that a name gives are not always drawn.
measure.name: concentration at 24 h

The compound identified as COc1ccc2c(c1)[C@]13CCCC[C@@H]1[C@H](C2)N(C)CC3 [dextromethorphan, hydrobromide monohydrate] registered its concentration at 24 h at ~15 ng/mL
